# IC50 against UniProt P43490, merged from multiple literature sources
Recorded Endpoint: IC50 (nM)

compound=COCCC(=O)N(CCc1ccccn1)c1ncc(C(=O)NCCCn2ccnc2)s1 test_result=2.84

[1] O=C(NCc1ccn2ccnc2c1)c1ccc(C2CCN(C(=O)[C@H]3CCCO3)C2)cc1 (stereo partly drawn)
[2] CC(C)(C)CC(=O)N1CC=C(c2ccc(C(=O)NCc3ccn4ccnc4c3)o2)CC1
[3] O=C(NCCCn1ccnc1)c1cnc(N(CCN2CCCC2)Cc2ccc(F)cc2)s1
[4] CC(C)OC[C@@H]1CN(c2ncc(C(=O)NCc3ccn4ccnc4c3)s2)C(=O)O1
Order field: IC50 | Direction: descending (largest first) Answer format: the labels, in the requested order. 3, 4, 2, 1
(3: 641 nM, 4: 2.22 nM, 2: 0.79 nM, 1: 0.36 nM)

[1] O=C(NCc1ccn2ccnc2c1)c1ccc(O[C@H]2CCN(C(=O)CC3CCOCC3)C2)cc1
[2] O=C(NCc1ccn2ccnc2c1)c1ccc(C2CCN(C(=O)c3ccco3)C2)s1 (stereo not drawn)
[3] COCCCN1CCN(CC(=O)N(Cc2ccc(F)cc2)c2ncc(C(=O)NCCCn3ccnc3)s2)CC1
[4] CN(Cc1ccc(F)cc1)c1ncc(C(=O)NCCCn2ccnc2)s1
Order field: IC50 | Direction: descending (largest first) Answer format: the labels, in the requested order. 4, 3, 2, 1

[A] O=C(Nc1ccc(OC2CCN(CC3CCOC3)CC2)cc1)C1CN(c2cccnc2)C1 (stereo not drawn)
[B] O=C(NCc1ccn2ccnc2c1)c1cnc(C2CCN(S(=O)(=O)c3ccccc3)C2)s1 (stereo not drawn)
[C] CC(=O)NCCNC(=O)N(Cc1ccc(C#N)cc1)c1ncc(C(=O)NCCCn2ccnc2)s1
[D] O=C(NCc1ccc2nccn2c1)c1ccc(-c2cnn(CC3CCC3)c2)s1
Exam item: list the entries in increasing order of IC50. Answer format: the labels, in the requested order. D, A, B, C

[A] O=C(NCc1ccn2ccnc2c1)c1ccc(C2CCN(C(=O)c3ccccc3Cl)C2)s1 (stereo not drawn)
[B] O=C(NCc1ccn2ccnc2c1)c1ccc(C2CCN(C(=O)c3cccc(Cl)c3)CC2)cc1
So which one has the bigger IC50 here, A or B ? Give the label under which the chosen entry appears. A

###

pIC50: −log10 of the molar value.
# pIC50 against NAMPT (Homo sapiens), merged from multiple literature sources
# Sequence (P43490 whole entry): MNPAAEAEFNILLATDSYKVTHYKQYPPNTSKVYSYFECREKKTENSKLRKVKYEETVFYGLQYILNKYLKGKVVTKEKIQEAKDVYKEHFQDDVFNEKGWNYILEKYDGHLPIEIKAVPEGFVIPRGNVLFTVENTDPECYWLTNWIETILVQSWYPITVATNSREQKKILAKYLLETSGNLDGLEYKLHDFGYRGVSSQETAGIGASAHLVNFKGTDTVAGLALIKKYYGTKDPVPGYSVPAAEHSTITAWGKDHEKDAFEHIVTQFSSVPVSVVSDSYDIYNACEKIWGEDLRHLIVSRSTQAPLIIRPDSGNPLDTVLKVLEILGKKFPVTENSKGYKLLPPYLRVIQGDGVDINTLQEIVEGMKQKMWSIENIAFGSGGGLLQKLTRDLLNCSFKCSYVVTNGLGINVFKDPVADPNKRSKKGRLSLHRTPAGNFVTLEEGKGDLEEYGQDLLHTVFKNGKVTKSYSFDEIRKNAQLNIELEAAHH
Recorded Endpoint: pIC50

# annotated cases, reported pIC50 shown
compound=CC[C@H](C)C(=O)N1CC(O)(c2ccc(C(=O)NCc3ccn4ccnc4c3)s2)C1 recorded_endpoint=pIC50 test_result=9.67
compound="O=C(NCc1ccc2nccn2c1)c1ccc(C2=CCN(C(=O)C3CCOC3)CC2)cc1 (stereo not drawn)" recorded_endpoint=pIC50 test_result=9.77
compound=O=C(/C=C/c1cccnc1)NCCCCCCn1c(-c2ccccc2)cc2cc(O)c(O)cc21 recorded_endpoint=pIC50 test_result=6.91
compound=CC(C)(C)OC(=O)N1CCC(Oc2ccc(NC(=O)NCc3ccn4ccnc4c3)cc2)CC1 recorded_endpoint=pIC50 test_result=9.36
compound="O=C(NCc1ccn2ccnc2c1)c1cnc(C2CCN(C(=O)c3ccccc3)C2)s1 (stereo not drawn)" recorded_endpoint=pIC50 test_result=9.29

[I] CC(C)CC(=O)N1CCC(Oc2ccc(NC(=O)C3CN(c4ccnnc4)C3)cc2)CC1
[II] O=C(Nc1ccc(C2CCN(C(=O)c3ccoc3)CC2)cc1)C1CN(c2cccnc2)C1
So which one has the bigger pIC50 here, I or II ? Give the label under which the chosen entry appears. II
(II: 9.71, I: 7.27)

[P] CCC(C)(C)C(=O)N1CCC(Oc2ccc(NC(=O)C3CN(c4ccnnc4)C3)cc2)CC1
[Q] CC(C)Cn1cc(-c2ccc(C(=O)NCc3ccc4nccn4c3)s2)cn1
Compare P and Q and name the one whose reported pIC50 is smaller. Give the label under which the chosen entry appears. P

[1] O=C(CC1CCCC1)Nc1ccc(C(=O)NCc2ccn3ccnc3c2)c(F)c1
[2] CC(C)CCN(C(=O)Cc1ccc(F)cc1)c1ncc(C(=O)NCCCn2ccnc2)s1
So which one has the bigger pIC50 here, 1 or 2 ? Give the label under which the chosen entry appears. 2
(2: 9.60, 1: 9.28)
